// provenance: PubChem BioAssay

- measured target: L-lactate dehydrogenase (Plasmodium falciparum (isolate CDC / Honduras))
- protocol description: PfLDH activity inhibition – cell lysate, 3D7 strain, counter-screen for P. falciparum growth inhibition project (AID 2304);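 also: 0% = vehicle and 100% = reference inhibitor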
- condition parameters: P. falciparum 3D7 crude extract, LDH APAD/NBT absorbance; at 2 µM; stronger effect = higher value
readout name: inhibition (%)
Lab book: enter the figure in %, no units written.

// worked examples, inhibition included
[
  {
    "compound": "CC(=O)N(Cc1ccccc1-c1ccc(CNCCc2ccccc2)cc1)C1CCN(Cc2ccccc2)CC1",
    "inhibition / %": 3
  },
  {
    "compound": "O=C(/C=C/c1ccc(Cl)cc1Cl)NC1CCC(CN2CCC(c3c[nH]c4ccccc34)CC2)CC1 (stereo not drawn)",
    "inhibition / %": 7
  },
  {
    "compound": "CS(=O)(=O)Nc1ccc2[nH]cc(C3CCN(CC4CCN(C(=O)/C=C/c5ccc(Cl)c(Cl)c5)CC4)CC3)c2c1",
    "inhibition / %": -5
  },
  {
    "compound": "Cc1[nH]c2ccccc2c1C1=CCN(CCCCCNC(=O)/C=C/c2ccc(Cl)c(Cl)c2)CC1",
    "inhibition / %": -1
  },
  {
    "compound": "Cc1cc(NC(=O)[C@H](CC(C)C)Nc2ccc(C#N)c3ccccc23)ccc1F",
    "inhibition / %": 3
  },
  {
    "compound": "Cc1[nH]c2c(C)cc(NS(C)(=O)=O)cc2c1C1CCN(CC2CCN(C(=O)/C=C/c3ccc(Cl)c(Cl)c3)CC2)CC1",
    "inhibition / %": 1
  },
  {
    "compound": "CC[C@H]1CN2CC[C@@H]1C[C@H]2[C@H](O)c1cc(-c2c(C)noc2C)nc2ccc(OC)cc12",
    "inhibition / %": -1
  },
  {
    "compound": "CC[C@H]1CN2CC[C@H]1C[C@H]2[C@H](O)c1cc(-c2ccccc2C(F)(F)F)nc2ccc(OC)cc12",
    "inhibition / %": -5
  }
]

input: Which inhibition value belongs to `CN(c1cc(NC(=O)c2ccc(F)cc2)ccn1)C1CCN(Cc2ccc(C#N)cc2)CC1` ?
output: 2

input: Would you mind doing `O=C(COc1ccc(Cl)cc1)N1CCC(CN2CCC(c3c[nH]c4ccccc34)CC2)CC1` as well?
output: 1

input: Would you mind doing `CC[C@H]1CN2CC[C@@H]1C[C@H]2[C@H](O)c1cc(-c2ccc(Cl)c(Cl)c2)nc2ccc(O)cc12` as well?
output: -1

input: Would you mind doing O=C(/C=C/c1ccc2ccccc2c1)NC1CCC(CN2CCC(c3c[nH]c4ccccc34)CC2)CC1 (stereo not drawn) as well?
output: 4

input: Would you mind doing `C[C@@H](CC1CCCCC1)NCc1ccccc1O` as well?
output: 3

input: Would you mind doing CC(=O)C1(c2ccccc2)CCN(CCC2(c3ccc(Cl)c(Cl)c3)CN(C(=O)C3CCCCC3)CCO2)CC1 (stereo not drawn) as well?
output: -2

input: Would you mind doing `c1ccc2c(NCCCCCCCCCNc3c4ccccc4nc4ccccc34)c3ccccc3nc2c1` as well?
output: -6

input: Would you mind doing Cc1cccc2[nH]cc(C3CCN(CC4CCC(NC(=O)/C=C/c5ccc(Cl)c(Cl)c5)CC4)CC3)c12 (stereo not drawn) as well?
output: -4

====

- measured target: Calcium-activated potassium channel subunit alpha-1 (Homo sapiens) + Leucine-rich repeat-containing protein 26 (Homo sapiens) (UniProt Q12791+Q2I0M4)
- Sequence (Q2I0M4 whole entry, looked up, one chain of several): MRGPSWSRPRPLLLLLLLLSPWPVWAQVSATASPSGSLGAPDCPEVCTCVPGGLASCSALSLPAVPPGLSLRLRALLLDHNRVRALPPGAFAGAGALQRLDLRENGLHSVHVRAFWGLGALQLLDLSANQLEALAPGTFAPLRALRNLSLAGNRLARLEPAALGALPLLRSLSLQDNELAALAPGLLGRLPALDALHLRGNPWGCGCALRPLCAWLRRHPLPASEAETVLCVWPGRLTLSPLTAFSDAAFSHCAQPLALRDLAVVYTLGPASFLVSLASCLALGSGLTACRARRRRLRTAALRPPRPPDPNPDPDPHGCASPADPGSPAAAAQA
- protocol description: modulators of BK channel variants, profiling panel, selectivity assay, cell-based, U2OS BacMam, thallium flux, beta subunits (AID 1259406);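 also: initial slope of Thallos dye fluorescence rise after thallium is added; log ratio against the mean of 0.3% DMSO vehicle wells on the same plate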
- condition parameters: F380Y/Slo1WT/gamma1, at 30 µM
Returns one of 1.0 or 0.0; 1.0 when log fold change Tl+ flux is >= -0.007.

[
  {
    "compound": "NC(=O)CS(=O)C(c1ccccc1)c1ccccc1 (centres undefined)",
    "group": 1.0
  },
  {
    "compound": "CC(C)[C@]12O[C@H]1[C@@H]1O[C@]13[C@]1(O[C@H]1C[C@H]1C4=C(CC[C@@]13C)C(=O)OC4)[C@@H]2O",
    "group": 1.0
  },
  {
    "compound": "NC(=O)OCCCc1ccccc1",
    "group": 0.0
  },
  {
    "compound": "Oc1cc2c(cc1O)[C@H]1c3ccccc3CN[C@@H]1CC2",
    "group": 1.0
  },
  {
    "compound": "O=c1[nH]c(=S)[nH]c(O)c1C=C1C=CC=N1",
    "group": 1.0
  },
  {
    "compound": "CN(C)[C@@H]1C(=O)C(C(N)=O)=C(O)[C@@]2(O)C(=O)C3=C(O)c4c(O)cccc4[C@@](C)(O)[C@H]3[C@H](O)[C@@H]12",
    "group": 1.0
  },
  {
    "compound": "O=C1CC[C@@]2(O)[C@H]3Cc4ccc(O)c5c4[C@@]2(CCN3CC2CC2)[C@H]1O5",
    "group": 0.0
  },
  {
    "compound": "Cc1nnc2n1-c1ccc(Cl)cc1C(c1ccccc1)=NC2",
    "group": 0.0
  },
  {
    "compound": "CC1CCC[C@H](O)CCCCCc2cc(O)cc(O)c2C(=O)O1 (some centres undefined)",
    "group": 1.0
  },
  {
    "compound": "c1ccc2c3c([nH]c2c1)CNCC3",
    "group": 1.0
  }
]

input: State whether the measured log fold change Tl+ flux reaches -0.007, counting equality as reaching it, for `C[N+]1(CCC(C(N)=O)(c2ccccc2)c2ccccc2)CCCCC1`
output: 1.0

input: Would you mind doing `COc1ccc(CCN)cc1OC` as well?
output: 1.0

input: Would you mind doing COC(=O)N1CCN(C(=O)Cc2ccc(Cl)c(Cl)c2)C(CN2CCCC2)C1 (centres undefined) as well?
output: 0.0

====

- protocol description: JHH-DIPG-1 glioma cell viability, MIPE5.0 library, CellTiter-Glo luminescence, qHTS (AID 1347067);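 also: cells exposed to compound for 48 hours before readout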
- condition parameters: JHH-DIPG-1 glioma viability, CellTiter-Glo ATP luminescence
Results filed as inconclusive are left out. Calls of active or inactive are those of the source. Cut-off not given; nearly all actives show AC50 up to about 26 µM.
Could you please pick one outcome from this set? label 1 = active, label 0 = inactive

Example cases with answers are listed next.
[
  {
    "compound": "C[C@]12CCC(=O)C(O)=C1CC[C@@H]1[C@@H]2CC[C@]2(C)C(=O)CC[C@@H]12",
    "group": "label 0"
  },
  {
    "compound": "C[C@@]12OC(=O)[C@]1([C@@H](O)[C@@H]1C=CCCC1)NC(=O)[C@@H]2CCCl",
    "group": "label 1"
  },
  {
    "compound": "Cc1ncc(OC[C@@]2(c3cccc(F)c3)C[C@H]2C(=O)Nc2ccc(F)cn2)c(C)n1",
    "group": "label 0"
  },
  {
    "compound": "COc1ccc(C(=O)c2c(C)n(CCN3CCOCC3)c3ccccc23)cc1",
    "group": "label 1"
  },
  {
    "compound": "Clc1ccccc1C(c1ccccc1)(c1ccccc1)n1cccn1",
    "group": "label 1"
  },
  {
    "compound": "COc1cc(C)[nH]c(=O)c1CNC(=O)c1c(C)n([C@H](C)C2CCOCC2)c2ccccc12",
    "group": "label 0"
  },
  {
    "compound": "CN[C@@H]1C[C@H]2O[C@@](C)([C@@H]1OC)n1c3ccccc3c3c4c(c5c6ccccc6n2c5c31)C(=O)NC4",
    "group": "label 1"
  },
  {
    "compound": "O=C1CC[C@@]2(O)[C@H]3Cc4ccc(O)c5c4[C@@]2(CCN3CC2CC2)[C@H]1O5",
    "group": "label 0"
  }
]

input: What outcome does the record of this test show for `CC1=C(O)C(=O)C=C2C1=CC=C1[C@@]2(C)CC[C@@]2(C)[C@@H]3C[C@](C)(C(=O)O)CC[C@]3(C)CC[C@]12C` ?
output: label 1

input: Would you mind doing `CN(C)[C@@H]1C(=O)C(C(N)=O)=C(O)[C@@]2(O)C(=O)C3=C(O)c4c(O)cccc4[C@@](C)(O)[C@H]3C[C@@H]12` as well?
output: label 0

input: Would you mind doing N=C1NC(=O)N2CC12 (stereo not drawn) as well?
output: label 0

input: Would you mind doing `Cc1cccc(C)c1NC(=O)CN1CCCC1=O` as well?
output: label 0

input: Would you mind doing `COc1ccc(N(C(=O)Oc2c(C)cccc2C)c2ccnc(Nc3ccc(N4CCN(C)CC4)cc3)n2)c(OC)c1` as well?
output: label 1

====

- protocol description: inhibitors of polyQ protein aggregation (AID 1604)
- condition parameters: polyglutamine-induced protein aggregation inhibition assay; stronger effect = higher value; concentration not given here
readout name: inhibition of aggregation (%)
Lab book: enter the figure in %, no units written.

// worked examples, inhibition of aggregation included
[
  {
    "compound": "C=C(C)[C@@H]1[C@H]2OC(=O)[C@@H]1[C@]1(O)C[C@H]3O[C@]34C(=O)O[C@H]2[C@]14C",
    "unit abbreviation": "%",
    "inhibition of aggregation": 48.7
  },
  {
    "compound": "CCOC(=O)C1(c2ccccc2)CCN(C)CC1",
    "unit abbreviation": "%",
    "inhibition of aggregation": 7.48
  },
  {
    "compound": "O=[N+]([O-])O[C@H]1CO[C@H]2[C@@H]1OC[C@H]2O[N+](=O)[O-]",
    "unit abbreviation": "%",
    "inhibition of aggregation": 83.1
  }
]

Query compound follows.
input: Which inhibition of aggregation value belongs to CCCCCc1cc(O)c2c(c1)OC(C)(C)C1CC=C(C)CC21 (centres undefined) ?
output: 42.9
